System: Citrobacter diversus
procedureSummary: MIC against Gram-negative bacteria: Citrobacter diversus
Format: cell-based
experimentalContext: Citrobacter diversus; 96-well plate, 5×10^5 CFU/mL, 37° C., 10 h
quantity: MIC against C. diversus (µg/mL)
Answer format: numeric, µg/mL implied, no suffix.

Sample records with MIC against C. diversus:
| substance | MIC against C. diversus (µg/mL) |
| --- | --- |
| PRT1203 (DIDECAEGRHYCRENTMCVNTPGSFMCICKTGYIRIDDYSCT; listed as Homo sapiens) | 12.5 |
| PRT1295 (RTSPCDNFDCQNGAQCIVRINEPICQCLPGYQGEKCE; listed as Homo sapiens) | 12.5 |
| PRT1293 (KLDFCAQDLNPCQHDSKCILTPKGFKCDCTPGYVGEHCD; listed as Homo sapiens) | 12.5 |
| PRT1277 (ETCAVNNGGCDSKCHDAATGVHCTCPVGFMLQPDRKTCK; listed as Homo sapiens) | 12.5 |
| PRT1278 (DIDECRLNNGGCDHICRNTVGSFECSCKKGYKLLINERNCQ; listed as Homo sapiens) | 12.5 |
| PRT1262 (DVDECSMSNGSCDQGCVNTKGSYECVCPPGRRLHWNGKDCV; listed as Homo sapiens) | 12.5 |
| PRT1208 (VHHGCEDDPCPEGSECVSDPWEEKHTCVCPSGRFGQCP; listed as Homo sapiens) | 25 |
| PRT1259 (CAVNNGGCDRTCKDTATGVRCSCPVGFTLQPDGKTC; listed as Homo sapiens) | 12.5 |
| PRT1283 (NTDDCVDHACANGGVCVDGVGNYTCQCPLQYEGKACE; listed as Homo sapiens) | 50 |
| PRT1251 (CAFVCADCGSGHCDFQSGRCLCSPGVHGPHCN; listed as Homo sapiens) | 50 |

The reported value for PRT1224 (PPGDCASHPCQNGGSCEPGLHSGFTCSCPDSHTGRTCE; listed as Homo sapiens) in terms of MIC against C. diversus is 12.5

The reported value for PRT1219 (DHDSCVHGPCQNGGSCLRRLAVSSVLKSRESLPVIIVANEPLQPFLCKCLPGYAGSWCE; listed as Homo sapiens) in terms of MIC against C. diversus is 25

The reported value for PRT1244 (CGSTCPTCVQGSCDTVTGDCVCSAGYWGPSCN; listed as Homo sapiens) in terms of MIC against C. diversus is 25

----------
Test system: E. coli DH5α
procedureSummary: Antibacterial activity: MIC and growth curve against E. coli DH5α in 96-well plate
Type: cell-based
experimentalContext: minimal inhibitory concentration against E. coli DH5α; 96-well plate, 5×10^5 CFU/mL, 37° C., judged after 8 h
quantity: MIC (mg/L)
Answer format: numeric, mg/L implied, no suffix.

| substance | uom | MIC |
| --- | --- | --- |
| PRT834 (DCADSPCCQQVCTNNPGGYECGCYAGYRLSADGCGCE; listed as Homo sapiens) | mg/L | 50 |

The reported value for PRT260 (CRAGNGGCHGLATCRAVGGGQRVCTCPPGFGGDGFSC; listed as Homo sapiens) in terms of MIC is 12.5

The reported value for PRT1224 (PPGDCASHPCQNGGSCEPGLHSGFTCSCPDSHTGRTCE; listed as Homo sapiens) in terms of MIC is 25

The reported value for PRT900 (VLAPCAPSPCRNGGECRQSEDYESFSCVCPTGWQGQTCE; listed as Homo sapiens) in terms of MIC is 12.5

The reported value for PRT624 (CRCSPLGAASAQCHENGTCVCRPGFEGYKCDRCHDNFFLTADGTHCQQC; listed as Homo sapiens) in terms of MIC is 25

The reported value for PRT875 (GGSPCEAGEEGEGGVCLNGGVCSVVDDQAVCDCSRTGFRGKDCS; listed as Homo sapiens) in terms of MIC is 25

The reported value for PRT773 (PSNPCQDDPCADNSLCVKLHNTSFCLCLEGYYYNSSTCK; listed as Homo sapiens) in terms of MIC is 50

The reported value for PRT1173 (KCIPHPGCVHGICNEPWQCLCETNWGGQLCD; listed as Homo sapiens) in terms of MIC is 12.5

----------
Tested on: Pseudomonas aeruginosa
procedureSummary: MIC against Gram-negative bacteria: Pseudomonas aeruginosa
Type: cell-based
experimentalContext: P. aeruginosa; 10 h cultivation at 37° C.; 5×10^5 CFU/mL
quantity: MIC (μg/mL) P. aeruginosa (µg/mL)
Answer format: numeric, µg/mL implied, no suffix.

Sample records with MIC (μg/mL) P. aeruginosa:
| substance | MIC (μg/mL) P. aeruginosa [µg/mL] |
| --- | --- |
| PRT789 (YGNDCHQRCQCQNGATCDHVTGECRCPPGYTGAFCE; listed as Homo sapiens) | 25 |
| PRT796 (SGDFCIPLCTEECVHGRCVSPDTCHCEPGWGGPDCS; listed as Homo sapiens) | 12.5 |

The reported value for PRT225 (DIDECSYSSYLCQYRCINEPGRFSCHCPQGYQLLATRLCQ; listed as Homo sapiens) in terms of MIC (μg/mL) P. aeruginosa is 12.5

The reported value for PRT876 (TAKPCLSNPCKNNGMCRDGWNRYVCDCSGTGYLGRSCE; listed as Homo sapiens) in terms of MIC (μg/mL) P. aeruginosa is 12.5

The reported value for PRT154 (DVDECSLAEKTCVRKNENCYNTPGSYVCVCPDGFEETEDACV; listed as Homo sapiens) in terms of MIC (μg/mL) P. aeruginosa is 12.5

The reported value for PRT747 (DIDECKDPDACSQICVNYKGYFKCECYPGYEMDLLTKNCK; listed as Homo sapiens) in terms of MIC (μg/mL) P. aeruginosa is 12.5

The reported value for PRT145 (DVNECEIYSGTPLSCQNGGTCVNTMGSYSCHCPPETYGPQCA; listed as Homo sapiens) in terms of MIC (μg/mL) P. aeruginosa is 12.5

The reported value for PRT766 (GKDQCAEGGHGCQHQCVNAWAMFHCTCNPGYKLAADNKSCL; listed as Homo sapiens) in terms of MIC (μg/mL) P. aeruginosa is 25

The reported value for PRT799 (FHACSCHNGASCSAEDGACHCTPGWTGLFCT; listed as Homo sapiens) in terms of MIC (μg/mL) P. aeruginosa is 12.5

The reported value for PRT220 (DINECETTNECREDEMCWNYHGGFRCYPRNPCQDPYILTPENRCV; listed as Homo sapiens) in terms of MIC (μg/mL) P. aeruginosa is 12.5

The reported value for PRT817 (FGPGCEQRCQCQHGAACDHVSGACTCPAGWRGTFCE; listed as Homo sapiens) in terms of MIC (μg/mL) P. aeruginosa is 50

The reported value for PRT242 (CEPGCKFGECVGPNKCRCFPGYTGKTC; listed as Homo sapiens) in terms of MIC (μg/mL) P. aeruginosa is 50

The reported value for PRT240 (NINECEVEPCKNGGICTDLVANYSCECPGEFMGRNCQ; listed as Homo sapiens) in terms of MIC (μg/mL) P. aeruginosa is 25

----------
Tested on: Enterobacter cloacae
procedureSummary: MIC against Gram-negative bacteria: Enterobacter cloacae
Format: cell-based
experimentalContext: E. cloacae; 10 h cultivation at 37° C.
Listed here are substances together with their documented MIC.
Answer format: numeric, mg/L implied, no suffix.

Sample records with MIC:
| substance | assaySystem | quantity | measurement |
| --- | --- | --- | --- |
| PRT1011 (RAPSCGFHHCHHGGLCLPSPKPGFPPRCACLSGYGGPDCL; listed as Homo sapiens) | Enterobacter cloacae | MIC | 12.5 |
| PRT920 (DVDECQLMPNACQNGGTCHNTHGGYNCVCVNGWTGEDCS; listed as Homo sapiens) | Enterobacter cloacae | MIC | 12.5 |
| PRT1043 (HGPNCSQECRCHNGGLCDRFTGQCRCAPGYTGDRCR; listed as Homo sapiens) | Enterobacter cloacae | MIC | 25 |

The reported value for PRT1029 (PANPCEDGSHTCAPAGQARCVHHGGSTFSCACLPGYAGDGHQCT; listed as Homo sapiens) in terms of MIC is 50

The reported value for PRT996 (DIDECRSSPCANGGQCQDQPGAFHCKCLPGFEGPRCQ; listed as Homo sapiens) in terms of MIC is 12.5

The reported value for PRT901 (DINECVLSPCRHGASCQNTHGGYRCHCQAGYSGRNCE; listed as Homo sapiens) in terms of MIC is 25

The reported value for PRT1026 (NKETCEHNHRQCSRHAFCTDYATGFCCHCQSKFYGNGKHCL; listed as Homo sapiens) in terms of MIC is 12.5

The reported value for PRT987 (NVDDCPGHRCLNGGTCVDGVNTYNCQCPPEWTGQFCT; listed as Homo sapiens) in terms of MIC is 25

Data provenance: patent US9833497B2
